- Measured Target: Beta-lactamase TEM (Escherichia coli, UniProt P62593)
- Sequence (P62593 whole entry): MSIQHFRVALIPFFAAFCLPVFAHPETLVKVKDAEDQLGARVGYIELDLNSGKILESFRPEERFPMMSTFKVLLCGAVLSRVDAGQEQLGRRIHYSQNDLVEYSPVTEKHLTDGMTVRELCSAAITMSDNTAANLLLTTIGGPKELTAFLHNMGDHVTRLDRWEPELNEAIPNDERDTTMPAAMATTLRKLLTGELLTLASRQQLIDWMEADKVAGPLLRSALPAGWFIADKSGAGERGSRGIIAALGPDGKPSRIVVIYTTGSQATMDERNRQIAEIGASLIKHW
- Protocol Details: Compound was tested for inhibition of Beta-lactamase from RTEM-1
pIC50: −log10 of the molar value.
Readout Type: pIC50

[[record]]
compound = "C[C@]1(C=CC#N)[C@H](C(=O)O)N2C(=O)C[C@H]2S1(=O)=O [Ro-481220]"
readout_type = "pIC50"
data_value = 5.97


###

- Measured Target: Beta-lactamase OXA-1 (Escherichia coli)
- Sequence (P13661 whole entry): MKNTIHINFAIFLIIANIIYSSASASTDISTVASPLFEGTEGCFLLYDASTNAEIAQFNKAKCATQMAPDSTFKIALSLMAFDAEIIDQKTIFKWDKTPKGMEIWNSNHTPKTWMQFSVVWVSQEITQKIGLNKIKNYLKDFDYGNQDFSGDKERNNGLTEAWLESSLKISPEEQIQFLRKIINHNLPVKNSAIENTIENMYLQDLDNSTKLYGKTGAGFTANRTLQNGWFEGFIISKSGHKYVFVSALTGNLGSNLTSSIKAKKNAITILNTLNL
- Protocol Details: Compound was tested for inhibition of Beta-lactamase from OXA-1
pIC50: −log10 of the molar value.
Readout Type: pIC50

[[record]]
compound = "C[C@]1(C=CC#N)[C@H](C(=O)O)N2C(=O)C[C@H]2S1(=O)=O [Ro-481220]"
data_value = 7.00

